Tested on: A549 NSCLC
procedure details: NCI tumour cell line growth inhibition, 48 h
The following molecules are shown together with reported TGI values.

Some molecules with recorded TGI:
molecule: CC(C)(Oc1ccc(Cl)cc1)C(=O)NC1C2CC3CC1CC(NS(C)(=O)=O)(C3)C2 (stereo unspecified)
study target: A549 NSCLC
TGI: > 100 µM

molecule: COC(=O)C(C(=O)C(=O)Nc1ccc(Br)cc1)c1nc2ccc(Cl)cc2[nH]c1=O (stereo unspecified)
study target: A549 NSCLC
TGI: > 100 µM

molecule: COc1ccc(/C=N/Nc2nc(N)nc(N3CCCC3)c2C#N)cc1
study target: A549 NSCLC
TGI: 50.8 µM

molecule: O=C1c2cc3c(cc2[C@@H]2NC4CCCC14O2)OCO3 (stereo partly specified)
study target: A549 NSCLC
TGI: > 100 µM

molecule: COC(=O)C(C)(Cc1ccc2c(c1)nnn2C(C)=O)NC(C)=O (stereo unspecified)
study target: A549 NSCLC
TGI: > 100 µM

Turning now to a further molecule:
Q: Specify reported TGI for the molecule shown: `OCC(CO)C1c2cccc3ccc4cccc1c4c23`
Result: > 100 µM
